In this section we review reported viability at 28.5 h, 10 µM values for a set of molecules.
- test.details: in vitro
- experimental.context: human, hela cells, % viability
quantity.name: viability at 28.5 h, 10 µM (%)

[[record]]
molecule = "COc1cc(/C=C2\\SC(=S)N(c3cccc(C(=O)O)c3)C2=O)cc([N+](=O)[O-])c1O"
quantity_name = "viability at 28.5 h, 10 µM"
endpoint_result = 96.2

[[record]]
molecule = "Cc1ccccc1COc1cccn2c(N(C)CC3CCCO3)c(C)nc12 (stereo not shown)"
quantity_name = "viability at 28.5 h, 10 µM"
endpoint_result = 115

[[record]]
molecule = "Nc1ncc(-c2cccc(O)c2)nc1NCc1ccco1"
quantity_name = "viability at 28.5 h, 10 µM"
endpoint_result = 92.1

[[record]]
molecule = "Cc1ccc(C)c(C(=O)C2=C(O)C(=O)N(CCN(C)C)C2c2ccc(O)cc2)c1 (stereo not shown)"
quantity_name = "viability at 28.5 h, 10 µM"
endpoint_result = 102

[[record]]
molecule = "O=C(Cn1cc(C(=O)NC2CCCCC2)ccc1=O)NCC1(c2ccccc2Cl)CC1"
quantity_name = "viability at 28.5 h, 10 µM"
endpoint_result = 86.4

[[record]]
molecule = "Cc1ccc(Nc2ncc(C(=O)NCCCN3CCCCCC3)c3ccccc23)cc1Cl"
quantity_name = "viability at 28.5 h, 10 µM"
endpoint_result = 105

[[record]]
molecule = "COc1cccc(C(=O)N2CC=C[C@H]2C(=O)NC2CC2)c1"
quantity_name = "viability at 28.5 h, 10 µM"
endpoint_result = 94.4

[[record]]
molecule = "CN(C)C(=O)COc1cccc(Nc2nc(Br)cn3ccnc23)c1"
quantity_name = "viability at 28.5 h, 10 µM"
endpoint_result = 92.8

[[record]]
molecule = "CC(=O)Nc1ccc(NC(=O)CC2SCCNC2=O)cc1 (stereo not shown)"
quantity_name = "viability at 28.5 h, 10 µM"
endpoint_result = 89.6

[[record]]
molecule = "CCn1cc(S(=O)(=O)Nc2cc(C)on2)cn1"
quantity_name = "viability at 28.5 h, 10 µM"
endpoint_result = 84.3

[[record]]
molecule = "O=C(O)c1cccc(-n2cc(-c3cccc(C(F)(F)F)c3)nn2)c1"
quantity_name = "viability at 28.5 h, 10 µM"
endpoint_result = 114

[[record]]
molecule = "CCc1ocnc1C(=O)NC1CCN(c2ncccc2C#N)CC1"
quantity_name = "viability at 28.5 h, 10 µM"
endpoint_result = 93

[[record]]
molecule = "CN1C(=O)COc2ccccc2C/C=C/C[C@@H]2[C@H]1CCCN2C(=O)Cn1ccc(=O)[nH]c1=O"
quantity_name = "viability at 28.5 h, 10 µM"
endpoint_result = 102

[[record]]
molecule = "COc1cccc(C(=O)N2CCC(Cc3ccccc3-c3ccccc3)(C(N)=O)CC2)c1"
quantity_name = "viability at 28.5 h, 10 µM"
endpoint_result = 93.6

[[record]]
molecule = "CC(=O)N1CCN(CCCC(c2ccc(F)cc2)c2ccc(F)cc2)CC1 [CBK024944C]"
quantity_name = "viability at 28.5 h, 10 µM"
endpoint_result = 101

[[record]]
molecule = "Cc1cc(NC(=O)NC2CC3(CCN(C)CC3)Oc3ccccc32)no1 (stereo not shown)"
quantity_name = "viability at 28.5 h, 10 µM"
endpoint_result = 104

[[record]]
molecule = "CCc1ccc(CNC2CCN(Cc3cscn3)CC2)o1"
quantity_name = "viability at 28.5 h, 10 µM"
endpoint_result = 92.7

[[record]]
molecule = "Cc1cccc(-c2csc3c(=O)[nH]c(N4CCC5(CC4)OCCO5)nc23)c1"
quantity_name = "viability at 28.5 h, 10 µM"
endpoint_result = 102

[[record]]
molecule = "N#Cc1cccc(C(=O)NCCc2nnc3n2CCCCC3)c1"
quantity_name = "viability at 28.5 h, 10 µM"
endpoint_result = 105


---

- test.details: in vitro
- experimental.context: human, hela cells, % viability
quantity.name: viability at 28.5 h, 10 µM (%)

[[record]]
compound = "CN(C)c1cccc(COc2cncc(N3CCNCC3)n2)c1 [CBK200004]"
endpoint_result = 82.1

[[record]]
compound = "CCOC(=O)CSc1nc(-c2ccc(C)cc2)cs1 [CBK007039]"
endpoint_result = 90.4

[[record]]
compound = "Cc1cc(NC(=O)c2ccc(Cl)c([N+](=O)[O-])c2)nc2c1c(=O)oc1ccccc12 [CBK291263]"
endpoint_result = 96.7

[[record]]
compound = "c1cc(-c2n[nH]c(C3CCNCC3)n2)ccn1 [CBK104676C]"
endpoint_result = 85.2

[[record]]
compound = "CC(C)N1CCC(CNC(=O)c2cc3ccccc3c(=O)s2)CC1 [CBK282711]"
endpoint_result = 88.6

[[record]]
compound = "COc1ccc(C(N)C2(O)CCN(Cc3ccccc3)CC2)cc1 (stereo not shown) [CBK091386]"
endpoint_result = 107

[[record]]
compound = "c1ccc(CNc2cccc(N3CCNCC3)n2)cc1 [CBK003176T]"
endpoint_result = 92

[[record]]
compound = "COc1ccccc1-c1nc2ccccn2c1CO [CBK173210]"
endpoint_result = 113

[[record]]
compound = "CCOc1ccc(C(=O)NCCC(=O)O)cc1 [CBK261725D]"
endpoint_result = 92.2

[[record]]
compound = "CC(O)Cc1nnc(SCC(=O)c2ccc([N+](=O)[O-])cc2)n1-c1ccccc1 (stereo not shown) [CBK267389]"
endpoint_result = 81.1

[[record]]
compound = "FC(F)(F)Oc1cccc(-c2cncc(NCc3cccs3)n2)c1 [CBK065909]"
endpoint_result = 97.5

[[record]]
compound = "CC(C)C(=O)NC(NC(=S)Nc1sc2c(c1C(N)=O)CCCC2)C(Cl)(Cl)Cl (stereo not shown) [CBK261050]"
endpoint_result = 94

[[record]]
compound = "Cc1ccc(NC(=O)c2ccc3c(c2)C(=O)N(c2cccc(N4C(=O)c5ccc(C(=O)Nc6ccc(C)cc6)cc5C4=O)n2)C3=O)cc1 [CBK261198]"
endpoint_result = 90.8

[[record]]
compound = "Cc1ccc(C(=O)N2CCC3(CC2)CC(=O)c2cc(Br)ccc2O3)cc1C [CBK162264]"
endpoint_result = 105

[[record]]
compound = "c1ccc2c(CCNc3nccnc3-c3ccoc3)c[nH]c2c1 [CBK036743]"
endpoint_result = 102

[[record]]
compound = "CC(C)Nc1cc(Sc2ccc(Br)cc2)ncn1 [CBK089502]"
endpoint_result = 103

[[record]]
compound = "CC1CCc2c(sc3ncnc(OCC(=O)N4CCNC4=O)c23)C1 (stereo not shown) [CBK305775]"
endpoint_result = 96.1

[[record]]
compound = "COc1ccc(NC(=O)N[C@H]2CO[C@H]3[C@@H]2OC[C@@H]3n2cc(-c3ccccc3)nn2)cc1 [CBK289506]"
endpoint_result = 106

[[record]]
compound = "O=C(Nc1c(F)cc(F)cc1OC1CCNCC1)c1cnccn1 [CBK050273T]"
endpoint_result = 100


---

- test.details: in vitro
- experimental.context: human, hela cells, % viability
In this section we review reported viability at 28.5 h, 10 µM values for a set of compounds.
quantity.name: viability at 28.5 h, 10 µM (%)

[[record]]
compound = "O=C(O)c1c(NS(=O)(=O)c2ccc(Oc3ccccc3)cc2)sc2c1CCCC2"
endpoint_result = 101

[[record]]
compound = "Cc1cc(CNC(=O)C(C)Cn2cccn2)on1 (stereo not shown)"
endpoint_result = 90.9

[[record]]
compound = "COc1cc2nc(NC(=O)c3ccccc3)sc2cc1OC"
endpoint_result = 82.3

[[record]]
compound = "CCOc1ccccc1CNc1ccc(C2c3ccsc3CCN2C(C)=O)cc1 (stereo not shown)"
endpoint_result = 104

[[record]]
compound = "Nc1ccc2c(c1)/C(=C/c1c[nH]c3ncccc13)C(=O)N2 [CBK010155T]"
endpoint_result = 103

[[record]]
compound = "O=C(C1CC1)N1CC(n2nc(-c3cccs3)ccc2=O)C1"
endpoint_result = 85.1

[[record]]
compound = "Cc1cc(C=O)c(O)c(/C=N/CC/N=C/c2cc(C)cc(C=O)c2O)c1"
endpoint_result = 95.6

[[record]]
compound = "COc1ccc(C=CC(=O)Nc2sc3c(c2C(=O)O)CCCC3)cc1OC"
endpoint_result = 117

[[record]]
compound = "COC(=O)c1nn(-c2ccccc2)c2cc([N+](=O)[O-])ccc12"
endpoint_result = 99.3

[[record]]
compound = "NC(=O)c1ccccc1NC(=O)CCN1C(=O)c2cccc([N+](=O)[O-])c2C1=O"
endpoint_result = 87.4

[[record]]
compound = "CS(=O)(=O)NC1CCCN(c2ncnc3ccccc23)C1 (stereo not shown)"
endpoint_result = 111

[[record]]
compound = "O=C(C1CC1)N1CCC(c2[nH]ncc2-c2ccncc2)CC1"
endpoint_result = 87.6

[[record]]
compound = "COc1ccc(C)cc1S(=O)(=O)N(C)CC(=O)Nc1cccc(SC)c1"
endpoint_result = 101

[[record]]
compound = "Cc1cccc([C@@H]2CN(Cc3ccccc3)C[C@]23CCCC(=O)N3)n1"
endpoint_result = 107

[[record]]
compound = "CN1C(=O)c2ccccc2C(=O)[C@@]2(C)CN(C(=O)C3CC3)C[C@@H]12"
endpoint_result = 87.3

[[record]]
compound = "O=C(C1CC=CCC1)N1CCCC(c2[nH]ncc2-c2ccncc2)C1 (stereo not shown)"
endpoint_result = 93.2

[[record]]
compound = "CC(C)c1ccc(S(=O)(=O)NC(C#N)c2ccccc2)cc1 (stereo not shown)"
endpoint_result = 101

[[record]]
compound = "O=C(NC(c1ccc(Cl)cc1)c1ccsc1)C1CCN(CCOc2ccccc2)CC1 (stereo not shown)"
endpoint_result = 101

[[record]]
compound = "COC(=O)c1c(NC(=S)NCc2ccccn2)sc(C(=O)N(C)C)c1C"
endpoint_result = 98.8

